Entry source: patent US20240317708A1

# System name: recombinant human transglutaminase 2 (Homo sapiens)
# Sequence (P21980 whole entry): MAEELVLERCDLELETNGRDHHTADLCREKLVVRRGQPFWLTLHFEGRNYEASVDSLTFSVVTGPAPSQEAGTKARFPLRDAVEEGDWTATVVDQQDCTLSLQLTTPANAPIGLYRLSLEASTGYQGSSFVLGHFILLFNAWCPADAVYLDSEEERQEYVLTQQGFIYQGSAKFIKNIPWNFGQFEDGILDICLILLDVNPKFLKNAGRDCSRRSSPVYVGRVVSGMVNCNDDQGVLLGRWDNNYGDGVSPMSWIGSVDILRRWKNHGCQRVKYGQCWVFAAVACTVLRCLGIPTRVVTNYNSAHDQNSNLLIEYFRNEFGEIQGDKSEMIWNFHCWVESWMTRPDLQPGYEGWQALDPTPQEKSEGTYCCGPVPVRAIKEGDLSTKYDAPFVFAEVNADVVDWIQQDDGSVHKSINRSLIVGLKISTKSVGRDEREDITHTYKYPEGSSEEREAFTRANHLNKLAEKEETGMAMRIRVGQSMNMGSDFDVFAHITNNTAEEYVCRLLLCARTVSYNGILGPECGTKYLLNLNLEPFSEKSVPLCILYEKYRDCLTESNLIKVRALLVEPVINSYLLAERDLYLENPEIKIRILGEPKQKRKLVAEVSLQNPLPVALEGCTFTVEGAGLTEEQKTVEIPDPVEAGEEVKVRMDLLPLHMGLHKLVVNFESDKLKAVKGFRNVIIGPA
# Assay name: Transglutaminase assay (dansylcadaverine incorporation into dimethylcasein, DCC-assay)
# Assay conditions: recombinant human TG2 10 nM, dansylcadaverine/dimethylcasein, 37° C.
pIC50: −log10 of the molar value.
Parameter: pIC50

Below, each entry is followed by its recorded pIC50 result.
Compound | pIC50
COC(=O)/C=C/CC[C@H](NC(=O)c1coc2ccccc12)C(=O)Nc1cccn(CC(=O)NC2C3CC4CC(C3)CC2C4)c1=O (stereo partly drawn) | 6.60 to 7.60
COC(=O)/C=C/CC[C@H](NC(=O)c1snnc1C)C(=O)Nc1cccn(CC(=O)NC23CC4CC(C)(CC(C)(C4)C2)C3)c1=O | > 7.60
COC(=O)/C=C/CC[C@H](NC(=O)c1ccn(C)n1)C(=O)Nc1cccn(CC(=O)NC2C3CC4CC(C3)CC2C4)c1=O (stereo partly drawn) | 6.60 to 7.60
COC(=O)/C=C/CC[C@H](NC(=O)c1oc2ccccc2c1C)C(=O)Nc1cccn(CC(=O)NC2C3CC4CC2CC(C)(C4)C3)c1=O (stereo partly drawn) | > 7.60
COC(=O)/C=C/CC[C@H](NC(=O)c1cc2ccc(N(C)C)cc2o1)C(=O)Nc1cccn(CC(=O)NC23CC(C2)C3)c1=O | 5.82 to 6.60

Next compound, please.
Problem: Quick one: pIC50 for `COC(=O)/C=C/CC[C@H](NC(=O)c1oc2ccccc2c1C)C(=O)Nc1cccn(CC(=O)NC23CC4(C)CC(C)(CC(C)(C4)C2)C3)c1=O` ?
Solution: > 7.60
